variants and their reported self-cleavage
B1: HDV Ribozyme (parent)
chain: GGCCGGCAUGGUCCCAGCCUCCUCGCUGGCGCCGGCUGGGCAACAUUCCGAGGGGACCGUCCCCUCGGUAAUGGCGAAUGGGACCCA

variants of: B1; assay: self-cleavage, relative activity (ratio to wild type); higher = more cleavage; co-transcriptional
The reply should be a number, written without any unit.

// known answers, use as guide
G5C C48U | 0.308
G10C C32G | 0.0773
G53A G73C | 0.265
C30U C41A | 0.543
C3A G38U | 0.0471

Recorded self-cleavage for G39U C48G , please? 0.862

Recorded self-cleavage for G29C G82A , please? 0.117
